System: SGK1 (human), O00141 [S422D]
Sequence (O00141 whole entry S422D, looked up): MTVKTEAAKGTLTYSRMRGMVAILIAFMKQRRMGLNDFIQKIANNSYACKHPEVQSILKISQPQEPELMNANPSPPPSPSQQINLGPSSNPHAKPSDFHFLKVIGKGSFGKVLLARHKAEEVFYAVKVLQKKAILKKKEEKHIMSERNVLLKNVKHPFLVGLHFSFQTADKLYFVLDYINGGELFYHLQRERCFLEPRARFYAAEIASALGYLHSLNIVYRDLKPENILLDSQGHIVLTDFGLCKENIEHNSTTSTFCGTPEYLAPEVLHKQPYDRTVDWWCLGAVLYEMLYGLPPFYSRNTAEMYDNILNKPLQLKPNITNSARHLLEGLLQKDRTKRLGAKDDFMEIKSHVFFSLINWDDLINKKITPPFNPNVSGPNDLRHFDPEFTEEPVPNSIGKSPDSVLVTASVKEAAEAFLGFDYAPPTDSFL
Experiment: radiometric filter-binding kinase assay, Kinase HotSpot
Conditions: compound 0.5 µM; ATP 10 µM
readout type: residual activity (%)

O=C(c1ccccc1)c1ccc(N2CCOCC2)cc1O | 101
COc1cc2nccc(Oc3ccc(NC(=S)NC(=O)c4ccccc4C)cc3)c2cc1OC | 101
CCN(CC)CCCCN1c2ccccc2Oc2ccc(Cl)cc21 | 99.4
O=C1NC(=O)c2cc(Nc3ccc(F)cc3)c(Nc3ccc(F)cc3)cc21 | 103
Nc1n[nH]c2nnc(-c3c(-c4ccccc4)nn4ccccc34)cc12 | 99.9
Ic1cccc(CSc2nnc(-c3ccncc3)o2)c1 | 99
COc1cc2ncnc(N3CCN(C(=O)Nc4ccc(Oc5ccccc5)cc4)CC3)c2cc1OC | 99.8
CN(C)S(=O)(=O)c1ccc2c(c1)/C(=C/c1cc3c([nH]1)CCCC3)C(=O)N2 | 105
c1ccc(-c2cnc(Nc3ccc(OCCN4CCCC4)cc3)s2)cc1 | 83.6
O=C1NC(=O)C(c2cn(CCCn3ccnc3)c3ccccc23)=C1Nc1ccccc1 | 74.9
O=C(Nc1ccc(Cl)cc1)c1ccccc1NCc1ccncc1 | 96
